biological target: KRas G12D mutant (Homo sapiens, UniProt P01116, G12D); construct: fused on or other part: His tag, used for capture on nickel-coated plates; assay: Ras GTP binding domain inhibition assay (Cy3-GTP/Cy5-GTP competition); conditions: at 20 μM, without SOS; read-out: KRas G12D mutant: % inh.
MEASUREMENT_LABEL: inhibition at 20 µM

Each compound below has a recorded value; state its inhibition at 20 µM.
1. CO[C@H]1CC[C@@H](Nc2nc(-c3nccn3C)nc(C(=O)N3CCc4c(O)cccc4C3)c2C)C1 [drawing 1036]
2. COc1nc(-c2ccccn2)nc(Nc2cnn(C)c2)c1OC [drawing 929]
3. COCCn1ccnc1-c1nc(O)c2scc(-c3ccc(OCC(C)C)nc3)c2n1 [drawing 1033]
4. COc1ncccc1-c1sc2nc(-c3nccn3C)nc(N3CCC(OC)C3)c2c1-c1ccccc1 (centres unmarked) [drawing 978]
5. CO[C@H]1CC[C@@H](Nc2nc(-c3nc(C)cn3C)nc3sc(-c4cccc5[nH]ncc45)c(C)c23)C1 [drawing 1032]
6. CO[C@H]1CC[C@@H](Nc2nc(-c3nccn3C)nc3sc(C(=O)N4CCCC4)c(-c4ccccc4)c23)C1 [drawing 1061]
7. O=C(NC1CCCC1)c1nc(-c2ccccn2)nc(O)c1O [drawing 947]

Response:
1. 26 to 50%
2. 0%
3. 51 to 75%
4. 51 to 75%
5. 26 to 50%
6. 51 to 75%
7. 51 to 75%

* * *

target: KRas G12D mutant (Homo sapiens, UniProt P01116, G12D); construct: fused on or other part: His tag, used for capture on nickel-coated plates; test: Ras GTP binding domain inhibition assay (Cy3-GTP/Cy5-GTP competition); details: 20 μM; with SOS (Table 7A); read-out: KRas G12D mutant + SOS: % inh.
MEASUREMENT_LABEL: inhibition at 20 µM

> print(dat)
                                   compound  measurement
1  COCCNC(=O)c1sc2nc(-c3nccn3C)nc(N[C@@H]3CC[C@H](OC)C3)c2c1-c1ccccc1 [drawing 925]   76 to 100%

Each compound below has a recorded value; state its inhibition at 20 µM.
1. CO[C@H]1C[C@@H](Nc2nc(-c3nccn3C)nc3sc(-c4ccn(C)n4)c(-c4ccccc4)c23)C1.Cl
2. CO[C@H]1C[C@@H](Nc2nc(-c3nccn3C)nc3sc(-c4cnn(C)c4)c(-c4ccccc4)c23)C1 [drawing 892]
3. CO[C@H]1CC[C@@H](Nc2nc(-c3nccn3C)nc3sc(C(=O)NC(C)C)c(-c4ccccc4)c23)C1 [drawing 924]

Response:
1: 51 to 75%; 2: 76 to 100%; 3: 76 to 100%

Each compound below has a recorded value; state its inhibition at 20 µM.
1. Cn1ccc(-c2sc3nc(-c4nccn4C)nc(N[C@@H]4CC[C@H](O)C4)c3c2-c2ccccc2)n1 (racemic) [drawing 909]
2. COCCNC(=O)c1sc2nc(-c3nccn3C)nc(N[C@H]3C[C@@H](OC)C3)c2c1-c1ccccc1 [drawing 921]
3. CN(C)CCOCCNc1nc(-c2nccn2C)nc2sc(-c3ccn(C)n3)c(-c3ccccc3)c12 [drawing 907]

Response:
0%
51 to 75%
51 to 75%

* * *

system: KRas G12C mutant; assay: Ras GTP binding domain inhibition assay (Cy3-GTP/Cy5-GTP competition); design: species or system human; conditions: 20 μM; without SOS (Table 7A)
MEASUREMENT_LABEL: KRas G12C mutant: % inh.

> print(dat)
                                   compound  target.or.test.system         measurement.label            measurement
1  Cc1c(-c2ccn(C)n2)sc2nc(-c3nccn3C)nc(NCCCC(=O)N(C)C)c12 [drawing 917]       KRas G12C mutant  KRas G12C mutant: % inh.  C (51-75% inhibition)
2  COCCn1ccnc1-c1nc(O)c2scc(-c3ccc(OCC(C)C)nc3)c2n1 [drawing 898]       KRas G12C mutant  KRas G12C mutant: % inh.  C (51-75% inhibition)

* * *

test system: HRas wild type; assay: Ras GTP binding domain inhibition assay (Cy3-GTP/Cy5-GTP competition); design: species or system human; settings: at 20 μM, without SOS
MEASUREMENT_LABEL: HRas wild type % inh.

> print(dat)
                                   compound  target.or.test.system            measurement
1  CO[C@H]1C[C@@H](Nc2nc(-c3ccccn3)nc3sccc23)C1 [drawing 1037]         HRas wild type  C (51-75% inhibition)
2  CN(C)CCOCCNc1nc(-c2nccn2C)nc2sc(-c3ccn(C)n3)c(-c3ccccc3)c12 [drawing 1042]         HRas wild type  B (26-50% inhibition)
3  COc1cccc(-c2sc3nc(-c4nccn4C)nc(NC4CCC(OC)C4)c3c2-c2ccccc2)c1F (centres unmarked) [drawing 1020]         HRas wild type  B (26-50% inhibition)
4  CO[C@H]1C[C@@H](Nc2nc(-c3nccn3C)nc3sc(-c4ccn(C)n4)c(-c4ccccc4)c23)C1.Cl [drawing 1040]         HRas wild type  B (26-50% inhibition)
5  COC1CCC(Nc2nc(-c3nccn3C)nc3sc(-c4cccc5[nH]ncc45)c(-c4ccccc4)c23)C1 (centres unmarked) [drawing 1023]         HRas wild type  B (26-50% inhibition)

Each compound below has a recorded value; state its HRas wild type % inh..
1. CO[C@H]1CC[C@@H](Nc2nc(-c3nccn3C)nc3sc(-c4ccn(C(C)C)n4)c(C)c23)C1 [drawing 1054]
2. Cn1ccc(-c2sc3nc(-c4nccn4C)nc(N[C@@H]4CC[C@H](O)C4)c3c2C2=CC=CCC=C2)n1 (racemic)
3. CO[C@H]1C[C@H](Nc2nc(-c3nccn3C)nc3sc(-c4ccn(C)n4)c(-c4ccccc4)c23)C1 [drawing 1041]
4. CO[C@H]1C[C@@H](Nc2nc(-c3nccn3C)nc3sccc23)C1 [drawing 1038]
5. Cn1ccc(-c2sc3nc(-c4nccn4C)nc(N[C@H]4C[C@@H](O)C4)c3c2-c2ccccc2)n1 [drawing 1043]

Response:
["C (51-75% inhibition)", "C (51-75% inhibition)", "B (26-50% inhibition)", "C (51-75% inhibition)", "C (51-75% inhibition)"]

* * *

system: KRas wild type; test: Ras GTP binding domain inhibition assay (Cy3-GTP/Cy5-GTP competition); set-up: species or system human; conditions: 20 μM; with SOS
MEASUREMENT_LABEL: KRas wild type + SOS: % inh.

> print(dat)
                                   molecule  target.or.test.system             measurement.label             measurement
1  COCCNc1nc(-c2nccn2C)nc2sc(-c3cc(OC)ccc3Cl)c(-c3ccc(OC)cc3)c12 [drawing 877]         KRas wild type  KRas wild type + SOS: % inh.  D (76-100% inhibition)
2  COc1cccc(Cn2ccnc2-c2nc(O)c3scc(-c4ccccn4)c3n2)c1 [drawing 850]         KRas wild type  KRas wild type + SOS: % inh.   C (51-75% inhibition)
3  COC1CCN(c2nc(-c3nccn3C)nc3sc(-c4ccccc4CO)c(-c4ccccc4)c23)C1.Cl (centres unmarked)         KRas wild type  KRas wild type + SOS: % inh.  D (76-100% inhibition)
4  CC(C)NC(=O)c1nc(-c2nccn2C)nc(O)c1O [drawing 830]         KRas wild type  KRas wild type + SOS: % inh.   B (26-50% inhibition)
5  COCCCNc1nc(-c2nccn2C)nc2sc(-c3ccn(C)n3)c(-c3ccccc3)c12 [drawing 866]         KRas wild type  KRas wild type + SOS: % inh.   C (51-75% inhibition)
6  COc1nscc1-c1sc2nc(-c3nccn3C)nc(N3CCC(OC)C3)c2c1-c1ccccc1.Cl (centres unmarked)         KRas wild type  KRas wild type + SOS: % inh.  D (76-100% inhibition)

Each molecule below has a recorded value; state its KRas wild type + SOS: % inh..
1. Cc1cnc(-c2nc(O)c3scc(-c4ccccn4)c3n2)n1C [drawing 808]
2. COc1ccc(Cn2cnc(-c3nc(O)c4scc(-c5ccccn5)c4n3)c2)cc1 [drawing 839]
3. COc1ccc(-c2c(-c3ccn(C)n3)sc3nc(-c4nccn4C)nc(N4CCC(OC)C4)c23)cc1 (centres unmarked) [drawing 868]
4. Cn1ccnc1-c1nc(O)c(O)c(C(=O)NC2CCCC2)n1 [drawing 827]

Response:
1: A (1-25% inhibition); 2: A (1-25% inhibition); 3: A (1-25% inhibition); 4: B (26-50% inhibition)

Each molecule below has a recorded value; state its KRas wild type + SOS: % inh..
1. CO[C@H]1CCC(Nc2nc(-c3nccn3C)nc3sc(-c4ccn(C)n4)c(-c4ccccc4)c23)C1 (some centres unmarked) [drawing 860]
2. COC1CCN(c2nc(-c3nccn3C)nc3sc(-c4ccnn4C)c(-c4ccccc4)c23)C1.Cl (centres unmarked)
3. Cn1ccnc1-c1nc(O)c(O)c(C(=O)N2CCCC2)n1 [drawing 828]
4. COCCc1ccc(Oc2nc(-c3ccccn3)nc(O)c2OC)cc1 [drawing 814]
5. COC1CCN(c2nc(-c3nccn3C)nn3cc(-c4ccccc4)c(-c4ccccc4)c23)C1 (centres unmarked) [drawing 796]
6. CO[C@@H]1CCC(Nc2nc(-c3nccn3C)nc3sc(-c4ccn(C)n4)c(-c4ccccc4)c23)C1 (some centres unmarked) [drawing 859]
7. COc1cccc(-c2sc3nc(-c4nccn4C)nc(N4CCC(OC)C4)c3c2-c2cscn2)c1 (centres unmarked) [drawing 867]

Response:
1. D (76-100% inhibition)
2. C (51-75% inhibition)
3. A (1-25% inhibition)
4. B (26-50% inhibition)
5. A (1-25% inhibition)
6. C (51-75% inhibition)
7. D (76-100% inhibition)

Each molecule below has a recorded value; state its KRas wild type + SOS: % inh..
1. COCCNc1nc(-c2cn(C)cn2)nc2sc(-c3cccc(OC)c3Cl)c(-c3ccc(OC)cc3)c12 [drawing 797]
2. Cn1ccc(-c2sc3nc(-c4nccn4C)nc(NC4CCOCC4)c3c2-c2ccccc2)n1 [drawing 862]
3. Oc1nc(-c2ncc3ccccn23)nc2c(-c3ccccn3)csc12 [drawing 834]
4. COc1c(O)nc(-c2ccccn2)nc1Oc1cccnc1 [drawing 802]
5. CC(C)CN(C)C(=O)c1nc(-c2ccccn2)nc(O)c1O [drawing 798]
6. COCC1CCN(c2nc(-c3nccn3C)nc3sc(-c4ccn(C)n4)c(-c4ccccc4)c23)C1 (centres unmarked) [drawing 858]

Response:
1: D (76-100% inhibition); 2: B (26-50% inhibition); 3: C (51-75% inhibition); 4: B (26-50% inhibition); 5: A (1-25% inhibition); 6: C (51-75% inhibition)

Each molecule below has a recorded value; state its KRas wild type + SOS: % inh..
1. O=C(NC1CCCC1)c1nc(-c2ccccn2)nc(O)c1O [drawing 812]
2. COC1CCN(c2nc(-c3nccn3C)nc3sc(-c4ccccc4Cl)c(-c4cscn4)c23)C1 (centres unmarked) [drawing 849]
3. COCCn1ccnc1-c1nc(O)c2scc(-c3ccccn3)c2n1 [drawing 852]
4. COC1CCN(c2nc(-c3nccn3C)nc3sc(-c4ccnc(N(C)C)c4)c(-c4ccccc4)c23)C1.Cl (centres unmarked)
5. Cn1ccnc1-c1nc(O)c(O)c(C(=O)NC2CCC2)n1 [drawing 825]
6. COC1CCN(c2nc(-c3nccn3C)nc3sc(-c4ccn(C)n4)c(-c4ccccc4)c23)CC1 [drawing 856]
7. COc1ncccc1-c1sc2nc(-c3nccn3C)nc(N3CCC(OC)C3)c2c1-c1ccccc1.Cl (centres unmarked)

Response:
1. A (1-25% inhibition)
2. C (51-75% inhibition)
3. C (51-75% inhibition)
4. D (76-100% inhibition)
5. B (26-50% inhibition)
6. B (26-50% inhibition)
7. C (51-75% inhibition)
